# Protocol Notes: Toxicity, method of KARBER and BEHRENS, rats
# Condition: rat, in vivo; oral, rats, after 48 hours
Reported Metric: LD50 at 48 h (mg/kg)
# value in mg/kg; strip the unit string

Asked: Which measured LD50 at 48 h value corresponds to CC(Oc1cccc2ccoc12)C(N)=NO (stereo not shown) ?
Given back: 440

----------
# Protocol Notes: Toxicity, method of KARBER and BEHRENS, rats
# Condition: rat, in vivo, po
Reported Metric: LD50 at 24 h (mg/kg)
Quick reminder: number only, in mg/kg, skip the unit.

Asked: Form field: reported LD50 at 24 h of CC(Oc1cccc2ccccc12)C(N)=NO (stereo not shown)
Given back: 108

----------
# Test system: stereotypies induced by amphetamine
# Protocol Notes: Potentiation of the stereotypies induced by amphetamine
# Format: in vivo, rats
# Condition: 20 mg/kg, same conditions (amphetamine 10 mg/kg i.p.)
Below, each entry is listed alongside its reported Average increase of the stereotypies.
# output: bare number, no unit

Compound: CC(C)(Oc1cccc2ccoc12)C(N)=NO
Average increase of the stereotypies: 6.5
--
Compound: CN(C)CCCN1c2ccccc2CCc2ccccc21 [imipramine, reference compound]
Average increase of the stereotypies: 6
--
Compound: CC(Oc1ccc2occc2c1)C(N)=NO (stereo not shown)
Average increase of the stereotypies: 5

Asked: # lookup: Average increase of the stereotypies of Cc1cc2cc(OCC(N)=NO)ccc2o1
Given back: 4

----------
# Test system: aggressivity of killer rats
# Protocol Notes: Aggressivity of killer rats
# Assay type: in vivo, male rats
# Condition: Rattus norvegicus, ip, 0.5 h; 20 mg/kg i.p.; 30 minutes after administration
Classify by measured inhibition in vivo at 20 mg/kg: 1 if it is equal to or exceeds 60%, 0 if it is smaller.

Take a look at these entries with their results.
Compound: CC(Oc1cccc2ccoc12)C(N)=NO (centres unmarked)
Target Of Assay: aggressivity of killer rats
Label: 0
//
Compound: CN(C)CCCN1c2ccccc2CCc2ccccc21 [imipramine, reference compound]
Target Of Assay: aggressivity of killer rats
Label: 0

Asked: Record CC(C)(Oc1cccc2ccoc12)C(N)=NO ; criterion: inhibition in vivo at 20 mg/kg no lower than 60%. Met?
Given back: 1

Asked: Is inhibition in vivo at 20 mg/kg at least 60%? Consider CC(Oc1cccc2occc12)C(N)=NO (centres unmarked)
Given back: 1

----------
# Protocol Notes: Toxicity, method of KARBER and BEHRENS, rats
# Condition: rat, in vivo, ip
Reported Metric: LD50 at 24 h
Include the unit right after the number.

Asked: Could you share which LD50 at 24 h value was measured for CC(Oc1cccc2ccccc12)C(N)=NO (stereo not shown) [Compound 1, 2-(1-Naphthyloxy)-propionamidoxime] ?
Given back: 50 mg/kg

----------
# Protocol Notes: Toxicity, method of KARBER and BEHRENS, mice
# Condition: mouse, in vivo; oral, mice, after 48 hours
Reported Metric: LD50 at 48 h (mg/kg)
Write it as a number; the unit mg/kg goes unstated.

Asked: # lookup: LD50 at 48 h of CC(Oc1cccc2ccoc12)C(N)=NO (stereo not shown) [Compound 2, 2-(7-Benzofuryloxy)-propionamidoxime]
Given back: 170

----------
# Protocol Notes: Toxicity, method of KARBER and BEHRENS, rats
# Condition: rat, in vivo, ip; intraperitoneal, rats, after 48 hours
Reported Metric: LD50 at 48 h (mg/kg)
Please respond with the number in mg/kg and leave the unit unwritten.

Asked: # input molecule: CC(Oc1cccc2ccoc12)C(N)=NO (stereo not shown) ; wanted: its LD50 at 48 h
Given back: 62.5
